- Protocol description: viability loss in pontine glioma line – cell-based, SU-DIPG-XVII, MIPE5.0, CellTiter-Glo, qHTS, dose response (AID 1347060);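 on AC50: cells exposed to compound for 48 hours before viability readout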
- Applied conditions: CellTiter-Glo ATP luminescence
Results filed as inconclusive are left out. Active and inactive are the calls of the source. Cut-off not given; nearly all actives show AC50 up to about 26 µM.
Outcome codes: y (active), n (inactive)

>>> label_class("O=C(O)[C@@H](c1ccc(OCc2ccc3ccccc3n2)cc1)C1CCCC1")
"n"
>>> label_class("CCOc1cc(C(=O)N2CCC(N3CCN(C)CC3)CC2)ccc1Nc1ncc2c(n1)N(C1CCCC1)c1ccccc1C(=O)N2C")
"y"
>>> label_class("O=C(Nc1nnc(-c2ccco2)o1)c1cc(-c2ccccc2)nc2ccccc12")
"y"
>>> label_class("CC(C)c1cnn2c(NCc3ccccc3)cc(N[C@@H](CO)[C@H](O)CO)nc12")
"y"
>>> label_class("COc1cc2ncnc(Oc3cccc(NC(=O)Nc4cc(C(C)(C)C(F)(F)F)on4)c3)c2cc1OC")
"y"
>>> label_class("O=C(c1cncc(Br)c1)N1CCC(N2CCCC2)CC1")
"n"
>>> label_class("COc1cc2c(cc1OC)C1CC(=O)C(CC(C)C)CN1CC2 (stereo not given)")
"n"
>>> label_class("C[C@H]1[C@H](OC(=O)CCC(=O)O)O[C@@H]2O[C@@]3(C)CC[C@H]4[C@H](C)CC[C@@H]1[C@@]24OO3")
"y"
>>> label_class("CN1CCc2c(c3ccccc3n2Cc2ccc(C(=O)NO)cc2)C1")
"y"
>>> label_class("CC(C)n1ncnc1-c1cn2c(n1)-c1ccc(O[C@@H](C)C(N)=O)cc1OCC2")
"y"
>>> label_class("CN1CC(=O)NC1=NC(=O)Nc1cccc(Cl)c1")
"n"
>>> label_class("Cc1ccc2c(c1)C(=O)[C@]1(O)CCN(c3ccccc3)C1=N2")
"y"
>>> label_class("Cc1ccc(C2=Nc3ccc(Cl)cc3OC2)cc1")
"n"
>>> label_class("COC(=O)N(CC(=O)O)Cc1cccc(OCc2nc(-c3ccc(Cl)cc3)oc2C)c1")
"n"
>>> label_class("O=S(=O)(Nc1ccc(-c2cccnc2)c2cccnc12)c1cccc(C(F)(F)F)c1")
"y"

###

- Protocol description: galactose survival enhancers in mitochondrial complex I cybrids – cell-based, galactose medium, ATP luminescence, primary screen (AID 1645843);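 further: positive z means more ATP and so rescue of galactose-driven cybrid death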
- Applied conditions: complex I mutant cybrid cells, 72 h, active compounds read high
In this section we review reported z-score values for a set of compounds.
Assay metric: z-score

>>> experimental_result("Cc1cc(F)c(Nc2ncnc3cc(OCc4ccccc4)ccc23)cc1O")
1.85
>>> experimental_result("NC(N)=Nc1ccc(Cl)cc1")
-0.49
>>> experimental_result("O=C1c2ccccc2C(Cc2ccnc(F)c2)(Cc2ccnc(F)c2)c2ccccc21")
0.3
>>> experimental_result("NC(N)=NCc1cccc(I)c1")
-0.305
>>> experimental_result("c1ncc(CC2CCNCC2)[nH]1")
0.095
>>> experimental_result("NC(=O)N1c2ccccc2CC(O)c2ccccc21 (centres undefined)")
-0.055
>>> experimental_result("CSc1nc(NC2CCCC2)c([N+](=O)[O-])c(NC2CCCC2)n1")
-0.215
>>> experimental_result("O=C(Nc1cccc2cccnc12)c1ccc(N2C(=O)[C@@H]3[C@H](C2=O)[C@@H]2C=C[C@H]3C2)cc1")
-0.025
>>> experimental_result("CN1CCN(C(=O)c2nc3ccc(Cl)cc3[nH]2)CC1")
0.84

###

- Protocol description: viability loss in pontine glioma line – cell-based, SU-DIPG-IV, MIPE4.0, CellTiter-Glo, qHTS, dose response (AID 1347063);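 further: compound exposure lasted 48 hours before the viability readout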
- Applied conditions: CellTiter-Glo ATP luminescence
Records with an inconclusive call do not appear. Active and inactive are the calls of the source. Cut-off not given; nearly all actives show AC50 up to about 30 µM.
Outcome codes: active, inactive

>>> label_class("O=C(Nc1cc2cc[nH]c2cn1)c1ccccc1")
"active"
>>> label_class("CN1CCCN(C(=O)c2cccc(-c3ccc(/C=C4/C(=O)Nc5ccc(Cl)cc54)o3)c2)CC1")
"active"
>>> label_class("CC(=O)OC1C(C)OC(Oc2c(-c3ccc(O)cc3)oc3cc(O)cc(O)c3c2=O)C(O)C1OC(C)=O (configuration not stated)")
"active"
>>> label_class("COc1nc(-c2ccc3c(c2)OCO3)n(-c2ccc(NC(=O)CSc3ccccc3)cc2)n1")
"inactive"
>>> label_class("CC1=C[C@@H]2[C@H]([C@@H](O)C[C@@]3(C)[C@H]2C[C@@H](C)[C@]3(O)C(=O)CO)[C@@]2(C)Cc3cnn(-c4ccccc4)c3C=C12")
"active"
>>> label_class("CCOC(=O)/C=C/[C@H](C[C@@H]1CCNC1=O)NC(=O)[C@@H](CC(=O)[C@@H](NC(=O)c1cc(C)on1)C(C)C)Cc1ccc(F)cc1")
"inactive"
>>> label_class("CCC(C(=O)O)C1CCC(C)C(C(C)C(O)C(C)C(=O)C(CC)C2OC3(C=CC(O)[C@@]4(CC[C@](C)(C5CC[C@@](O)(CC)C(C)O5)O4)O3)C(C)CC2C)O1 (some centres not stated)")
"active"

###

- Protocol description: viability loss in pontine glioma line – cell-based, SU-DIPG-XVII, MIPE5.0, CellTiter-Glo, qHTS, dose response (AID 1347060);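 on AC50: cells exposed to compound for 48 hours before viability readout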
- Applied conditions: CellTiter-Glo ATP luminescence
Inconclusive results are not listed. Activity calls are given as the source filed them. The limit is not given here; nearly all actives have AC50 up to about 26 µM.
Outcome codes: active, inactive

>>> label_class("CC(C)NC(=O)C1CCC(n2c(NC(=O)c3ccc(F)cc3)nc3ccc(CN4CCC(C(C)(C)O)CC4)cc32)CC1 (stereo not given)")
"active"
>>> label_class("COc1cc(F)ccc1-c1ncnc(Nc2cccc(CS(C)(=N)=O)c2)n1 (stereo not given)")
"active"
>>> label_class("O=c1sn(-c2cccc3ccccc23)c(=O)n1Cc1ccccc1")
"active"
>>> label_class("CCN(CC)CCCCNc1nc2cc(Cl)c(Cl)cc2nc1-c1ccc(-c2cccs2)s1")
"active"
>>> label_class("CC(C)c1ccccc1Cc1cc(C(=O)Nc2ccc(S(=O)(=O)c3ccccc3C(C)(C)C)cc2)c(O)c(O)c1O")
"active"
>>> label_class("CNCCN(C)Cc1cn[nH]c1-c1ccc(OC2CC(OCCC3CCOCC3)C2)cc1 (stereo not given)")
"inactive"
>>> label_class("Cc1noc2c1-c1ccccc1C(c1ccc(Cl)cc1)=N[C@H]2CC(N)=O")
"inactive"
>>> label_class("COc1cc2c(cc1OCCCN1CCCC1)N=C(N)C21CCC1")
"inactive"
>>> label_class("CC(C)Nc1cc(C(F)(F)F)cc2nc(NC(=O)c3cccnc3)nn12")
"inactive"
>>> label_class("Cn1c2cc(S(C)=O)sc2c2cnn(Cc3cccc(N)c3)c(=O)c21 (stereo not given)")
"inactive"
>>> label_class("CC(C)(O)c1coc(S(=O)(=O)NC(=O)Nc2c3c(cc4c2CCC4)CCC3)c1")
"inactive"
>>> label_class("COC(=O)C[C@](O)(CCCC(C)(C)O)C(=O)O[C@@H]1C(OC)=CC23CCCN2CCc2cc4c(cc2[C@H]13)OCO4 (stereo not given in full)")
"active"
>>> label_class("O=C1CC(c2c[nH]c3ccc(F)cc23)C(=O)N1 (stereo not given)")
"inactive"
>>> label_class("c1ccc2c(-c3cnn4cc(-c5ccc(OCCN6CCOCC6)cc5)cnc34)ccnc2c1")
"active"
>>> label_class("CC(C)(O)CS(=O)(=O)Nc1ccc2c(c1)CCN(C(=O)COc1cccnc1)C2")
"active"
>>> label_class("CCS(=O)(=O)N1CC(CC#N)(n2cc(-c3ncnc4[nH]ccc34)cn2)C1")
"active"
>>> label_class("C[C@H](CCC(=O)O)[C@H]1CCC2C3C[C@H](O)[C@@H]4C[C@H](O)CC[C@]4(C)C3CC[C@@]21C (stereo not given in full)")
"inactive"
>>> label_class("COc1cc2c(Oc3ccc4[nH]c(C)cc4c3F)ncnc2cc1OCCCN1CCCC1")
"active"
>>> label_class("Cc1ccc(F)c(NC(=O)Nc2ccc(-c3cccc4[nH]nc(N)c34)cc2)c1")
"active"
>>> label_class("Cn1c(=O)c(-c2c(Cl)cccc2Cl)cc2cnc(Nc3cccc(C(=O)O)c3)nc21")
"active"

###

- Protocol description: viability loss in pontine glioma line – cell-based, SU-DIPG-XVII, MIPE5.0, CellTiter-Glo, qHTS, dose response (AID 1347060);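 on AC50: cells exposed to compound for 48 hours before viability readout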
- Applied conditions: CellTiter-Glo ATP luminescence
Records with an inconclusive call do not appear. Calls of active or inactive are those of the source. Cut-off not given; nearly all actives show AC50 up to about 26 µM.
Outcome codes: yes for active, no for inactive

>>> label_class("CC1(COc2ccc3c(c2)ncn3-c2ccc3cccc(N4CCC(N)CC4)c3n2)COC1")
"yes"
>>> label_class("CC(C)(C)NC(=O)c1cncn1C1CCN(c2ccc(-c3nnc(C(F)(F)F)o3)cn2)CC1")
"yes"
>>> label_class("COCCOC(=O)N1CCN(S(=O)(=O)c2cc(F)c(Oc3ccc(Cl)cc3)c(F)c2)C(C(=O)NO)C1 (stereo unspecified)")
"no"
>>> label_class("CN(C)Cc1ccc(S(=O)(=O)n2ccc(/C=C/C(=O)NO)c2)cc1")
"yes"
>>> label_class("C[C@@H](Oc1cc(-n2cnc3ccc(CN4CCN(C)CC4)cc32)sc1C(N)=O)c1ccccc1C(F)(F)F")
"yes"
>>> label_class("Cc1ccc(S(=O)(=O)Cc2nc(-c3ccc(C(=O)NCc4cccnc4)cc3)oc2C)cc1")
"yes"
